Origin of the recorded values: patent US8895474B2

# Tested on: Avena fatua (AVEFA)
# EXPERIMENT_SUMMARY: Post-emergence herbicidal activity, glasshouse pot test
# Format: in vivo
# CONDITION_PARAMETERS: 312 h, rate 250 g/ha, evaluated after 13 days, 100=total damage to plant, 0=no damage to plant
Threshold check on pest or weed control at 250 g/ha: at or above 60% gives Satisfied, strictly below gives Not satisfied.

CCc1ccc(Oc2ccc(Cl)cc2Cl)cc1C1=C(O)[C@H]2[C@@H](C1=O)[C@@H]1CC[C@H]2O1 = Satisfied

Answer whether pest or weed control at 250 g/ha of CCc1ccc(Oc2ccc([N+](=O)[O-])c(Cl)c2)cc1C1=C(O)C2C(C1=O)[C@H]1CC[C@@H]2CC1 (stereo partly shown) is greater than or equal to 60%. Not satisfied

Item CCc1ccc(Oc2nc3ccc(C(F)(F)F)cc3s2)cc1C1=C(O)C2C(C1=O)[C@H]1CC[C@@H]2CC1 (stereo partly shown) with pest or weed control at 250 g/ha of 60% or above? Satisfied

Is pest or weed control at 250 g/ha for CCc1ccc(Oc2ccc3cc(Cl)ccc3n2)cc1C1=C(O)C2C3CCC(CC3)C2C1=O (stereo not shown) at or above 60%? Satisfied

Test whether the molecule `CCc1ccc(Oc2nc3ccccc3s2)cc1C1=C(O)[C@H]2[C@H]3CC[C@H](C3)[C@H]2C1=O` records pest or weed control at 250 g/ha of 60% or higher. Not satisfied

Answer whether pest or weed control at 250 g/ha of `CCc1ccc(Oc2ccccc2Cl)cc1C1=C(O)[C@H]2[C@@H](C1=O)[C@@H]1CC[C@H]2O1` is greater than or equal to 60%. Not satisfied

====

# Tested on: Avena fatua (AVEFA)
# EXPERIMENT_SUMMARY: Post-emergence herbicidal activity, glasshouse pot test
# Format: in vivo
# CONDITION_PARAMETERS: 312 h, rate 250 g/ha, evaluated after 13 days, 100=total damage to plant, 0=no damage to plant
Overview of recorded pest or weed control at 250 g/ha for various compounds
// units = %; emit number, no label

Example cases with answers are listed next.
CCc1ccc(Oc2cnc3cc(Cl)ccc3n2)cc1C1=C(O)[C@H]2[C@H]3CC[C@H](C3)[C@H]2C1=O [Compound A-10] = 100
CCc1ccc(Oc2ccc(Cl)cc2F)cc1C1=C(O)[C@H]2[C@H]3CC[C@H](C3)[C@H]2C1=O [Compound A-25] = 40
CCc1ccc(Oc2cnc3ccccc3n2)cc1C1=C(O)CCC1=O [Compound A-67] = 20

Can you look up the measured pest or weed control at 250 g/ha of CCc1ccc(Oc2ccc(F)c(Cl)c2)cc1C1=C(O)[C@H]2[C@@H](C1=O)[C@@H]1CC[C@H]2O1 [Compound A-49] for me? 90

So what does the record say about pest or weed control at 250 g/ha for CCc1ccc(Oc2ncc(Cl)cc2C(F)(F)F)cc1C1=C(O)CCC1=O [Compound A-78] ? 90

Param item = CCc1ccc(Oc2ccc(Cl)cc2Cl)cc1C1=C(O)[C@H]2[C@H]3CC[C@H](C3)[C@H]2C1=O [Compound A-21] ; retrieve measured pest or weed control at 250 g/ha. 0

Query: pest or weed control at 250 g/ha; subject: CCc1ccc(Oc2ncc(Br)cn2)cc1C1=C(O)CCC1=O [Compound A-72] 30

Request the reported pest or weed control at 250 g/ha associated with CCc1ccc(Oc2ccc(Cl)cc2F)cc1C1=C(O)CCC1=O [Compound A-40] 10

====

# Test system: Avena fatua (AVEFA)
# EXPERIMENT_SUMMARY: Post-emergence herbicidal activity, glasshouse pot test
# Assay type: in vivo
# CONDITION_PARAMETERS: 312 h, rate 250 g/ha, evaluated after 13 days, 100=total damage to plant, 0=no damage to plant
# Method: Seeds of a variety of test species were sown in standard soil in pots. […] After 13 days for pre and post-emergence, the test was evaluated (100=total damage to plant; 0=no damage to plant). […]
PROPERTY_NAME: pest or weed control at 250 g/ha
Your reply should be a number followed by the unit it is expressed in.

# count of solved cases: 5
CCc1ccc(Oc2cnc3cc(Cl)ccc3n2)cc1C1=C(O)[C@H]2[C@@H](C1=O)[C@@H]1CC[C@H]2O1 = 90%
CCc1ccc(Oc2ccc(Br)cc2)cc1C1=C(O)CCC1=O = 20%
CCc1ccc(Oc2ncc(C(F)(F)F)cc2F)cc1C1=C(O)C2C(C1=O)[C@H]1CC[C@@H]2CC1 (some centres unmarked) = 100%
CCc1ccc(Oc2ccc(Cl)c(F)c2)cc1C1=C(O)[C@H]2[C@H]3CC[C@H](C3)[C@H]2C1=O = 80%
CCc1ccc(Oc2ncc(C(F)(F)F)cc2C(F)(F)F)cc1C1=C(O)CCC1=O = 100%

Given the entry CCc1ccc(Oc2ncc(Cl)cc2Cl)cc1C1=C(O)C2C(C1=O)[C@H]1CC[C@@H]2CC1 (some centres unmarked) , report its measured pest or weed control at 250 g/ha. 100%

Which pest or weed control at 250 g/ha value belongs to CCc1ccc(Oc2ccc(C(F)(F)F)cn2)cc1C1=C(O)C2C(C1=O)[C@H]1CC[C@@H]2CC1 (some centres unmarked) ? 100%

Any idea what its pest or weed control at 250 g/ha is? The molecule is CCc1ccc(Oc2ncc(C(F)(F)F)cc2Cl)cc1C1=C(O)C2C(C1=O)[C@H]1CC[C@@H]2CC1 (some centres unmarked) 100%

====

# Test system: Alopecurus myosuroides (ALOMY)
# EXPERIMENT_SUMMARY: Post-emergence herbicidal activity, glasshouse pot test
# Type: in vivo
# CONDITION_PARAMETERS: 312 h, rate 250 g/ha, evaluated after 13 days, 100=total damage to plant, 0=no damage to plant
Flag rule - pest or weed control at 250 g/ha less than 60% flags Satisfied; the remaining entries get Not satisfied.

CCc1ccc(Oc2ccc(Cl)cc2F)cc1C1=C(O)C2C(C1=O)[C@H]1CC[C@@H]2CC1 (stereo partly shown) [Compound A-32] = Not satisfied
CCc1ccc(Oc2ncc(Br)cn2)cc1C1=C(O)CCC1=O [Compound A-72] = Satisfied
CCc1ccc(Oc2ccc(C#N)c(Cl)c2)cc1C1=C(O)CCC1=O [Compound A-56] = Satisfied

Determine whether this compound shows pest or weed control at 250 g/ha lower than 60% (ties excluded): CCc1ccc(Oc2ncc(Cl)cc2F)cc1C1=C(O)[C@H]2[C@H]3CC[C@H](C3)[C@H]2C1=O [Compound A-11] Not satisfied

Confirm or reject: pest or weed control at 250 g/ha of CCc1ccc(Oc2ccc(Cl)cc2)cc1C1=C(O)C2C(C1=O)[C@H]1CC[C@@H]2CC1 (stereo partly shown) [Compound A-31] lies strictly below 60% Not satisfied

Is the reported pest or weed control at 250 g/ha for CCc1ccc(Oc2nc3ccc(C(F)(F)F)cc3s2)cc1C1=C(O)C2C(C1=O)[C@H]1CC[C@@H]2CC1 (stereo partly shown) [Compound A-108] strictly below 60%? Not satisfied

Is it true that pest or weed control at 250 g/ha reported for CCc1ccc(Oc2ccc(Br)cc2Cl)cc1C1=C(O)C2C(C1=O)[C@H]1CC[C@@H]2CC1 (stereo partly shown) [Compound A-28] is less than 60%? Satisfied

Threshold test, pest or weed control at 250 g/ha < 60%: CCc1ccc(Oc2ccc(Br)cc2Cl)cc1C1=C(O)[C@H]2[C@H]3CC[C@H](C3)[C@H]2C1=O [Compound A-20] Satisfied

Regarding CCc1ccc(Oc2ccc(OC(F)(F)F)cc2)cc1C1=C(O)[C@H]2[C@@H](C1=O)[C@@H]1CC[C@H]2O1 [Compound A-50] , kindly confirm whether its pest or weed control at 250 g/ha is beneath 60%. Not satisfied

Bench note: check whether CCc1ccc(Oc2ccc(C#N)cc2)cc1C1=C(O)C2C(C1=O)[C@H]1CC[C@@H]2CC1 (stereo partly shown) [Compound A-15] shows pest or weed control at 250 g/ha below 60% Satisfied

Find out if reported pest or weed control at 250 g/ha for CCc1ccc(Oc2ncc(C(F)(F)F)cc2C(F)(F)F)cc1C1=C(O)CCC1=O [Compound A-71] is less than 60% Not satisfied

Check if pest or weed control at 250 g/ha falls below 60% for CCc1ccc(Oc2ccc(C(F)(F)F)cc2[N+](=O)[O-])cc1C1=C(O)CCC1=O [Compound A-76] . Satisfied

Hello, I'm reviewing records and need to know if pest or weed control at 250 g/ha of CCc1ccc(Oc2ccc(Br)cc2)cc1C1=C(O)[C@H]2[C@@H](C1=O)[C@@H]1CC[C@H]2O1 [Compound A-4] is below 60%. Could you check? Not satisfied
